assay target: EGFR (human)
protocol text: Free Choice Kinase Assay Projects, Flashplate
experimental conditions: compound 10.0 µM; ATP 0.3 µM
measured property: residual activity (%)

[[record]]
compound = "Fc1ccc(-c2[nH]c(SCCc3ccccc3)nc2-c2ccncc2)cc1"
measured_property = "residual activity"
result_unit = "%"
reported_value = 24


[P] Fc1ccc(-c2[nH]c(SCc3ccccc3)nc2-c2ccnc(Cl)c2)cc1
[Q] Fc1ccc(-c2[nH]c(/C=C/c3ccccc3)nc2-c2ccncc2)cc1
[R] Fc1ccc(-c2[nH]c(SCC3CCCCC3)nc2-c2ccncc2)cc1
[S] CSc1ccc(CSc2nc(-c3ccncc3)c(-c3ccc(F)cc3)[nH]2)cc1
[T] Oc1ccccc1CSc1nc(-c2ccncc2)c(-c2ccc(F)cc2)[nH]1
query: # sort list by recorded residual activity, greatest to least Form field (ranking): labels in requested order.
result: S, R, T, P, Q
(S: 36%, R: 24%, T: 11%, P: 7%, Q: 2%)
